System Tested: equine FcRn (large alpha subunit p51) / equine beta-2-microglobulin complex, biotinylated (equine) (UniProt P30441)
Protocol Summary: SPR (Biacore), pH 6
Attribute Measured: pKd
Bear in mind: pKd is minus log10 of a mol/L concentration; give just that figure.

Look at this binder and give its reported pKd. equine IgG1 M252W (antibody, part only; not given: variable domains, not shown: another chain or arm of the molecule) constant: ASTTAPKVFALAPGCGTTSDSTVALGCLVSGYFPEPVKVSWNSGSLTSGVHTFPSVLQSSGFYSLSSMVTVPASTWTSETYICNVVHAASNFKVDKRIEPIPDNHQKVCDMSKCPKCPAPELLGGPSVFIFPPNPKDTLWITRTPEVTCVVVDVSQENPDVKFNWYMDGVEVRTATTRPKEEQFNSTYRVVSVLRIQHQDWLSGKEFKCKVNNQALPQPIERTITKTKGRSQEPQVYVLAPHPDELSKSKVSVTCLVKDFYPPEINIEWQSNGQPELETKYSTTQAQQDSDGSYFLYSKLSVDRNRWQQGTTFTCGVMHEALHNHYTQKNVSKNPGK 7.58

Data credit: patent US20260070987A1
